Values compiled from the Human Domainome abundance scans (Beltran et al. 2025).

Parameter abundance fitness: see the listing below.
B1: Triacylglycerol hydrolase DDHD2, residues 389 to 447; numbered along this chain, O94830 (parent)
chain: TLEEDLKKLQLSEFFDIFEKEKVDKEALALCTDRDLQEIGIPLGPRKKILNYFSTRKNS

Variants of: B1
Assay: abundance fitness (aPCA) (normalised: wild type 0, dead -1); higher = more abundant; growth selection in yeast, the domain comes from the species named
Details: Homo sapiens
Write the number on its own, no unit after it.

A selection of reference data follows.
[[record]]
variant_spec = "R56D"
property_measured = "abundance fitness"
numeric_value = 0.05

[[record]]
variant_spec = "F15Q"
property_measured = "abundance fitness"
numeric_value = -0.103

[[record]]
variant_spec = "S59A"
property_measured = "abundance fitness"
numeric_value = -0.235


Exam item: Report abundance fitness for D33N please.
Marked response: -0.367

Exam item: Try this variant too: E13G
Marked response: -0.576

Exam item: Try this variant too: E21F
Marked response: 0.616

Exam item: Try this variant too: E26F
Marked response: -0.223

Exam item: Try this variant too: N58C
Marked response: -0.252

Exam item: Try this variant too: Q37M
Marked response: -0.024

Exam item: Try this variant too: E26W
Marked response: -0.086

Exam item: Try this variant too: D5E
Marked response: 0.123

Exam item: Try this variant too: L36C
Marked response: -0.363

Exam item: Try this variant too: S59Y
Marked response: -0.109

Exam item: Try this variant too: L43S
Marked response: 0.617

Exam item: Try this variant too: Y52G
Marked response: -0.34
